biological target: mouse DLL3 on CHO-K1-mDLL3 cells (mouse) (UniProt O88516); assay: FACS, CHO-K1-mDLL3 cells, 0.00128 nM antibody
Sequence (O88516 other isoform, or with tags, fused parts or gaps limits assumed): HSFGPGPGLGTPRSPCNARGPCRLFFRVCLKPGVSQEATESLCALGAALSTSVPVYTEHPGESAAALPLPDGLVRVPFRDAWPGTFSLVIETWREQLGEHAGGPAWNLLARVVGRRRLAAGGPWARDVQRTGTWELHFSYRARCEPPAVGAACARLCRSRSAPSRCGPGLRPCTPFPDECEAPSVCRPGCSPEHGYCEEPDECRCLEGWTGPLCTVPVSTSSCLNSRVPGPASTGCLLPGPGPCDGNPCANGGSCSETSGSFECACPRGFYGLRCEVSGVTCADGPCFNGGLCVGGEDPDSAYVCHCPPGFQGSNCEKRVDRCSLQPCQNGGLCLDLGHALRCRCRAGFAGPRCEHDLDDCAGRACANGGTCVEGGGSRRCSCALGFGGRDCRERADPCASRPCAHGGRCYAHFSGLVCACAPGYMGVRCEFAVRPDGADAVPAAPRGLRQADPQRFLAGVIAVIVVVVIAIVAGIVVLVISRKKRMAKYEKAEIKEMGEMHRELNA
quantity: MFI (MFI)
Report the value in MFI with no unit label.

Check out these entries, answers already filled in.
binder	quantity	units	result-value
Hab015VL5VH1a-hFc (scFv, part only; not given: scFv linker and human IgG1 Fc, V domains shown, not shown: another chain or arm of the molecule; a dimerising Fc or GST; small tags and cut ends) VL: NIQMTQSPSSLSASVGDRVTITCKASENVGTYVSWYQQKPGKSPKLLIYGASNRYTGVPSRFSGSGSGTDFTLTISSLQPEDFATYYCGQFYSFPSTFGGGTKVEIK VH: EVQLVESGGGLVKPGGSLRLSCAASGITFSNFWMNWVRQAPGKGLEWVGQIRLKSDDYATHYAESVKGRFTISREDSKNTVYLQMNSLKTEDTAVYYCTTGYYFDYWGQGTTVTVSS	MFI	MFI	121
Hab015VL5VH6a-hFc (scFv, part only; not given: scFv linker and human IgG1 Fc, V domains shown, not shown: another chain or arm of the molecule; a dimerising Fc or GST; small tags and cut ends) VL: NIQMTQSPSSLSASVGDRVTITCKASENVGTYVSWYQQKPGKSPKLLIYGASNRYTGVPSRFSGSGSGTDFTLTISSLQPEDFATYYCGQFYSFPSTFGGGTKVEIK VH: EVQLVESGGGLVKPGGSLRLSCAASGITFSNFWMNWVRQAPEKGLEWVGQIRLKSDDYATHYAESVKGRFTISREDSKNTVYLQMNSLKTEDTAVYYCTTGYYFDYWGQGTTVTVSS	MFI	MFI	121

Please look at the following binder next.
Ask: State the recorded MFI for this entry: Hab013VL2VH2a-hFc (scFv, part only; not given: scFv linker and human IgG1 Fc, V domains shown, not shown: another chain or arm of the molecule; a dimerising Fc or GST; small tags and cut ends) VL: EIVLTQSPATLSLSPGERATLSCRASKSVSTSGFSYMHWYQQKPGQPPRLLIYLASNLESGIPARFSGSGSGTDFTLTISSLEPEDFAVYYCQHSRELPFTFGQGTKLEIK VH: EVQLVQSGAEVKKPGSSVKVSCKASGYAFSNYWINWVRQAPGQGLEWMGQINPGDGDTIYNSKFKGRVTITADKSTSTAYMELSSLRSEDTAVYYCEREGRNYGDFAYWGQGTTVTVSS
Result: 113
